measurement-description: Cytotoxicity MTT assay in Vero E6 cells
Type: cell-based, African green monkey
test-conditions: African green monkey, Vero E6 cells; Vero E6, 96 hrs, 33° C., MTT
metric: CC50 at 96 h

Q: Would you mind telling me what CC50 at 96 h value was observed for CN(C)c1nc(N)c(C(=O)NC(=N)N)nc1C#Cc1ccccc1 ?
A: > 100 µM

Q: Similarly, CN(C)c1nc(N)c(C(=O)NC(=N)N)nc1-c1ccc(-c2ccccc2)cc1 ?
A: ~90 µM

Q: Similarly, CN(C)c1nc(N)c(C(=O)NC(=N)N)nc1-c1ccccc1 ?
A: > 100 µM
